Target: Methyl-CpG-binding domain protein 4 (Homo sapiens) (UniProt O95243);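 also: MBD4 activity read as fluorescence at 594 nm from cleavage and release of a quenched duplex DNA oligonucleotide, with APE1 coupled to incise the strand and raise turnover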
Sequence (O95243 whole entry, the tested form may be a part): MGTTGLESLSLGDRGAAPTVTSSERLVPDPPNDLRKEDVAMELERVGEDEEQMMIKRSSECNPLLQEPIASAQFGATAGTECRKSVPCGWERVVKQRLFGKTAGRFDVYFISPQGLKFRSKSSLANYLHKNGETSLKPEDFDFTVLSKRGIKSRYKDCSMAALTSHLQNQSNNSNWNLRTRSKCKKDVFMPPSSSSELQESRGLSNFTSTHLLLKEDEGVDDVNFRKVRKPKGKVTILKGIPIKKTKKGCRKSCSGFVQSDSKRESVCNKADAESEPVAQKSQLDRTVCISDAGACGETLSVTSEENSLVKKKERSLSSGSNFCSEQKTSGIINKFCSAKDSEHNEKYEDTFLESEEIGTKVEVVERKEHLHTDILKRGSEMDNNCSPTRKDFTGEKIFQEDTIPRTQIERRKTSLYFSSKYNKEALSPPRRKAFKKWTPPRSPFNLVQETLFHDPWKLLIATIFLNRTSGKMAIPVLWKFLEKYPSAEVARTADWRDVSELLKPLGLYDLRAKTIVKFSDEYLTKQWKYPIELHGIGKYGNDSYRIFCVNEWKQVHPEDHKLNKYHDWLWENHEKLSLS
Conditions: Compound Concentration 10.0 uM, Hit No
Description: Inhibition of MBD4 by quantifying inhibition of MBD4-mediated cleavage and dissociation of quenched duplex DNA oligonucleotides, measured as fluorescence at 594 nm. To generate a functional strand incision and increase turn-over this assay is coupled to APE1.
Reported metric: inhibition
Please give the number followed by its unit.

Line notation	Measured target	inhibition
Cc1onc(-c2ccc(F)cc2)c1COc1ccc(C(=O)N2CCS(=O)(=O)CC2)cn1	Methyl-CpG-binding domain protein 4 (Homo sapiens) (UniProt O95243)	21.2%

Respectfully, I request inhibition for each entry included below.
1. NS(=O)(=O)c1cc(NC(=O)C2(c3ccccc3Cl)CC2)ccc1Oc1cccc(Cl)c1
2. NCCc1cccs1
3. CCCN[C@H]1CCc2nc(N)sc2C1

26.3%
2.05%
9.06%

Endpoint output: inhibition of `CCC(C)(C)/N=C(\NC#N)Nc1cccnc1` . Value? 4.69%
